Data origin: paper PMC3269340

assay: Pharmacokinetics in mice after single iv, po or sc dose (plasma and brain); settings: male, C57Bl/6, mouse, in vivo, iv, 1 mg/kg
RECORDED_ENDPOINT: Cmax (µM)
# output: bare number, implied unit µM

Task: Please give the measured Cmax for this compound: CC12CC3CC(C)(C1)CC(N)(C3)C2 [memantine]
Output: 7.7

====

Biological target: OCT2 (Homo sapiens)
Construct: expressed in transfected cells; host or cells: CHO cells
Sequence (O15244 1-555): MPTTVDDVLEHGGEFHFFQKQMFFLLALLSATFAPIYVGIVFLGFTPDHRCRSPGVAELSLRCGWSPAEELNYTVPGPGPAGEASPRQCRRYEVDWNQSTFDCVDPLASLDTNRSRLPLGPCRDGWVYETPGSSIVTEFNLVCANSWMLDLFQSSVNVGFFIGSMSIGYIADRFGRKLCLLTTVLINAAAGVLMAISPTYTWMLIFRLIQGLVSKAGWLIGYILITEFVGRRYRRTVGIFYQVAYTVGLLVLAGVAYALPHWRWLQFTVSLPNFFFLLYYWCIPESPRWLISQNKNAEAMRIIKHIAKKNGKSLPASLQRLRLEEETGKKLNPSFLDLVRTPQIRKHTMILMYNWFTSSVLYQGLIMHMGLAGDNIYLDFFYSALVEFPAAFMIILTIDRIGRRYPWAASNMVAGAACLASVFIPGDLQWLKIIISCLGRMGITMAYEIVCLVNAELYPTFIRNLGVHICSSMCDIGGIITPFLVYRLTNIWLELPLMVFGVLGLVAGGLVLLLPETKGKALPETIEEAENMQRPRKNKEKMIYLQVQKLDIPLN
Test: Indirect uptake transporter assay, OCT2
Format: in vitro ADME
Conditions: OCT2; probe in Table 5: Gly-Sar (1.8 μM); methods and text: metformin
RECORDED_ENDPOINT: IC50 (µM)
# output: bare number, implied unit µM

Task: Please give the measured IC50 for this compound: CC12CC3CC(C)(C1)CC(N)(C3)C2 [memantine]
Output: 8.86
